Please respond with reported Kd for every item in the list.
# system.under.test: IL-13 (Homo sapiens (Human), UniProt P35225 35-146, limits assumed)
# Sequence (P35225 35-146 limits assumed): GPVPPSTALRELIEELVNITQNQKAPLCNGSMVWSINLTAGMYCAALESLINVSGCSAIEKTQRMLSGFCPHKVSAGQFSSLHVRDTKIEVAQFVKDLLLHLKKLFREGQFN
# assay.overview: Biacore
Report only the number, with the unit pM understood.

Qu. For the binder shown here, M449 (antibody, V domains shown, anti-IL-13, human IgG1) VH: QVTLKESGPVLVKPTETLTLTCTVSGFSLSTYGMGVGWIRQPPGKALEWLAHIWWDDVKRYNPALKSRLTISKDTSKSQVVLTMTNMDPVDTATYYCARMGSDYDVWFDYWGQGTLVTVSS VL: EIVLTQSPATLSLSPGERATLSCRASKSISKYLAWYQQKPGQAPRLLIYSGSTLQSGIPARFSGSGSGTDFTLTISSLEPEDFAVYYCQQHESGPYTFGQGTKLEIK , give the reported Kd.
Ans. 89

Qu. Look up Kd for this binder: M456 (antibody, V domains shown, anti-IL-13, human IgG1) VH: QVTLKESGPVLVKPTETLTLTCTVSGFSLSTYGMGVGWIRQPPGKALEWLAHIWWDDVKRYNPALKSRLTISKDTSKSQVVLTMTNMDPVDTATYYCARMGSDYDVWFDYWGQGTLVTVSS VL: EIVLTQSPATLSLSPGERATLSCRASKSISKYLAWYQQKPGQAPRLLIYSGSTLQSGIPARFSGSGSGTDFTLTISSLEPEDFAVYYCQQHSYGPYTFGQGTKLEIK
Ans. 148

Qu. I would be grateful if you could share the reported Kd for M460 (anti-IL-13) (antibody, V domains shown) VH: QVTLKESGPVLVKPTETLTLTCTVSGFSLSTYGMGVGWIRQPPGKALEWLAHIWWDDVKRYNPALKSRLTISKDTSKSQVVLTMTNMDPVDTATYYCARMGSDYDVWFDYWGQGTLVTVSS VL: EIVLTQSPATLSLSPGERATLSCRASKSISKYLAWYQQKPGQAPRLLIYSGSTLQSGIPARFSGSGSGTDFTLTISSLEPEDFAVYYCQQHDYPYTFGQGTKLEIK .
Ans. 8
